Where do the numbers come from? From the supplement of paper PMC9170038.

- System: MS2 coat protein
- procedure.details: apparent KD of MS2 coat protein, switch OFF state (with FMN for OFF switches, without FMN for ON switches); designed switch direction (-1 OFF switch, 1 ON switch): -1; higher = weaker reporter binding
- assay.conditions: FMN input: 0 or 200 uM; Eterna round: R93 (includes R88 designs)
# Lookup of reported apparent KD of MS2 coat protein keyed by entry
Provide the reading as a plain figure in µM.

{"columns": ["biopolymer.sequence", "apparent KD of MS2 coat protein [µM]"],
 "data": [
  ["AAAAAGAGAGGAUAUGCAGGAGGUAAGGUCGAAAAAAAAAAACAUGAGGAUCACCCAUGUAGAAGGUUUAAAAA [Ecls2-VII]", 0.0239],
  ["AAAAUGUCAGGAUAUGCGAAGGCGUCUGACGGACGAGGAUUGCAGAAGGGACAUGAGGAUCACCCAUGUAAAAA [Mod Hyphema's Change in Energy -added G at 31]", 0.133]
]}

# input for lookup
## Task Fill in the blank: the reported apparent KD of MS2 coat protein of UGUUGGCGAGGAUAUACAUGAGGAUCACCCAUGUGAGAGAAAAAAGUGAGAAAGAAAAGUAGAAGGCGCUGACU [salish99-ex3-08] is ____.
## Result 0.211

###

- System: MS2 coat protein
- procedure.details: apparent KD of MS2 coat protein; designed switch direction (-1 OFF switch, 1 ON switch): -1; higher = weaker reporter binding
- assay.conditions: Eterna round: R95; input ligand: microRNA oligo, concentration not stated
measured.quantity: apparent KD of MS2 coat protein (nM)
Provide the reading as a plain figure in nM.

## Task Fill in the blank: the reported apparent KD of MS2 coat protein of GAUCGUUUAGAGGAUAUCGUGCUAAACAUUACAUGAGAAGGCUAGACAUGAGGAUCACCCAUGUAUGCUCGUGA [Exclusion 6 - 8:b] (puzzle: Exclusion 6) is ____.
## Result 14.8

## Task Fill in the blank: the reported apparent KD of MS2 coat protein of CUGCGUCGUGUUAGGAUAUCCAGCGGUGCGCGCCAGGAGAAGGAACAUGAGGAUCACCCAUGUAAACCGAUGGC [Aratte] (puzzle: Brourd's mod of Exclusion 4) is ____.
## Result 11

## Task Fill in the blank: the reported apparent KD of MS2 coat protein of AGUACUAACACGAUAGUGUUAGUACUAUAAGCUUGUGUUACAUGAGGAUCACCCAUGUCCUCAUAAGCUCGUCUUAG [Mat - Sensor v3 - Turn-off var 2 - D66] (puzzle: Sensor v3, turn-off variant 2) is ____.
## Result 83.2

## Task Fill in the blank: the reported apparent KD of MS2 coat protein of UUUUUACAUGAGGAUCACCCAUGUCAGGAUAUGAUUAUAUUUUAUUAUUUUAUUUUUUUCAGAAGGGACUAUUA [My solution] (puzzle: Exclusion 1) is ____.
## Result 80.6

## Task Fill in the blank: the reported apparent KD of MS2 coat protein of GGUUGGCGAGGAUAUACAUGAGGAUCACCCAUGUGAGAAUAAAAAGUGAGGAAGAAAAGUAGAAGGCGCUGACG [Mat - Exclusion 3 - Mod of Salish D5] (puzzle: Exclusion 3) is ____.
## Result 31.6

###

- System: K4 kissing-loop RNA reporter
- procedure.details: apparent KD of K4 kissing-loop reporter; higher = weaker reporter binding
- assay.conditions: Eterna round: R107; input ligand: theophylline 20 uM
# Lookup of reported apparent KD of K4 kissing-loop reporter keyed by entry
Provide the reading as a plain figure in nM.

{"columns": ["biopolymer.sequence", "unit.info", "apparent KD of K4 kissing-loop reporter"],
 "data": [
  ["UUGGGCAGUGAUGUUGGCUAGGCCACAGAUACCAGACGCAUGCACGUCCCUUGGCAGCUGCGAAAGUUAGACUUGUAAUGAUAGU [theeternabot_sameState_KL_Theo_A_45]", "nM", 338],
  ["AAACUUGCAGUGAUGUUGCAAGUAGGUGAUACCAGCAUCGAAAGAUGCCCUUGGCAGCACCAUCUUGUAACAUAGGUAUCACCAA [(H1)-(H2)-(T1)-(T2)-(H)'-(T)'_Design4]", "nM", 326],
  ["AUAGGAGUGAUGUUCCUUAGUUUCUCCGAUACCAGUAUGGAAACAUACCCUUGGCAGCGGGAAACCGCAGAUUAGGAAACUAGUC [Theophylline A K4 6]", "nM", 210]
]}

## Task Fill in the blank: the reported apparent KD of K4 kissing-loop reporter of AAUAGAUCAUUAUAGUGAUAAAUGCCUGAUACCAGUGAGAGAUGGCACCCUUGGCAGCAGAGAUGAGUGAUGUUCAGACUGUAAA [theeternabot_sameState_KL_Theo_A_11] is ____.
## Result 123

## Task Fill in the blank: the reported apparent KD of K4 kissing-loop reporter of CCGCGGCAAGCUCCGGAACCCAUAUUCGAUACCAGCCUUAUCACGGGCCCUUGGCAGCGAGCGUUAGUGAUGUUAGCGGCAUGGU [theeternabot_sameState_KL_Theo_A_27] is ____.
## Result 276

###

- System: K4 kissing-loop RNA reporter
- procedure.details: apparent KD of K4 kissing-loop reporter; higher = weaker reporter binding
- assay.conditions: Eterna round: R107; input ligand: theophylline 20 uM
# Lookup of reported apparent KD of K4 kissing-loop reporter keyed by entry
Provide the reading as a plain figure in nM.

Please review the entries below; each comes with its answer.
{"columns": ["biopolymer.sequence", "tgt", "reported"],
 "data": [
  ["CGGCUCAAUCCUAGUAUUAAGAGGGAGUUGCGAGGACCGGUACGGCCGCCACUCGAAGUAGUUUGGCCAGUGAUGUUGGUCUUAC [Mabeleon]", "K4 kissing-loop RNA reporter", 204],
  ["AAACAUCACUACUUCUUCGUCCUAGAAGACUAGGAUAUCAGGAAACUGAGAAGGAGUCUCUGCAGUGAUGUUGCAGCUAGGACGA [[K]'-[F2]'-[F1]'-[F1]-[F2]-[K1]-[K2]-[F]''_Design2]", "K4 kissing-loop RNA reporter", 249]
]}

# input for lookup
## Task Fill in the blank: the reported apparent KD of K4 kissing-loop reporter of ACCUGUAGCAGAAGGAGCGACAGUUAUUCUGAUAGAACUCUGAGUGAUGUUCAGAACAACUGUCAGGUAGGUCGCUGAUACAGGU [Arg B Ex t8a] is ____.
## Result 512

###

- Tested on: K4 kissing-loop RNA reporter;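 further: bound reporter read as fluorescence of individual clusters on recovered sequencing chips by microscopy, with normalized cluster intensities fitted with a binding model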
- procedure.details: apparent KD of K4 kissing-loop reporter; higher = weaker reporter binding
- assay.conditions: Eterna round: R107; input ligand: tryptophan 2.4 mM
measured.quantity: apparent KD of K4 kissing-loop reporter (µM)
Provide the reading as a plain figure in µM.

Please review the entries below; each comes with its answer.
{"columns": ["biopolymer.sequence", "apparent KD of K4 kissing-loop reporter / µM"],
 "data": [
  ["UACUAGUGAAACUAGUAGGUGCUAGGUGAAGGAGCGAUCGAAAGAUCAGGUAGGUCGCACCUUCCUGAGUGAUGUUCAGGUAAUA [KL-SSArg-A3]", 0.0409],
  ["GCAGUGAUGUUGCGCAGGUACAGUGGAGUGCGAGGACCGGUACGGCCGCCACUCGUACAGAACUAGCUAAUAUAUGGAUAGGUGA [VIII]", 0.28],
  ["AAGUAAUUAAUAAUUUAUAUAAGUUAAACAGAGGAUAUGCAUUAUUGCAGAAGGCUGAAUGCAGUGAUGUUGCAAUGAUUAUUUA [JR_SSFMNA_Sub001]", 0.0608],
  ["UUGAGCCGGACCCAAGUCCGGCUCUGCGAGCGAGGACCGGUACGGCCGCCACUCGGUGCAGUGAUGUUGCAUGGCCGCAAGGCCG [#2 Exclusion - Tryptophan A Attempt #7 (HarryS)]", 0.46],
  ["GUGAGGAGUGGUGUUGAUUAGGGAGCGGAAGGAGCGCCGAGGAAGGCAGGUAGGUCGCCGGAUUAUAGUGAUGUUAUGAAGAGGG [ExArg.K]", 0.338]
]}

# input for lookup
## Task Fill in the blank: the reported apparent KD of K4 kissing-loop reporter of CAGAACAUAUAUAGAAACUAUAUAUGAGAUACCAGUCAAAUUAAAGACCCUUGGCAGCUCAGGCGAGUGAUGUUCGCAGGCUAAC [Astros-Gfrank-modulation#2] is ____.
## Result 0.0883

###

- Tested on: MS2 coat protein
- procedure.details: apparent KD of MS2 coat protein; designed switch direction (-1 OFF switch, 1 ON switch): -1; higher = weaker reporter binding
- assay.conditions: Eterna round: R95; input ligand: FMN 200 uM
measured.quantity: apparent KD of MS2 coat protein (nM)
Provide the reading as a plain figure in nM.

{"columns": ["biopolymer.sequence", "measured.quantity", "reported"],
 "data": [
  ["UCAUGUUUAGAGGAUAUGAUUACUCUAGAGUGAUCAGAAGGCUAGACAUGAGGAUCACCCAUGUCAGAACAUGG [Exclusion 6 - B - 17:c] (puzzle: Exclusion 6)", "apparent KD of MS2 coat protein", 27.5],
  ["CUUAGACAUGAGGAUCACCCAUGUGAGGAUAUGAUGCGAAUAAGUAAGUAAUAAAGCAUCAGAAGGCACAUAUG [Mat - Mod of Hyphema D28] (puzzle: Exclusion 1)", "apparent KD of MS2 coat protein", 235],
  ["AAAUCCGCUGAGGAUAUUAUCAGUGAGAGCUGAUGAGAAGGCGGUACAUGAGGAUCACCCAUGUCUAUGGGCAA [Ex-6 Malc#25] (puzzle: Exclusion 6)", "apparent KD of MS2 coat protein", 358],
  ["CAUGAUCUUCGGAUCAUGUACAUGAGGAUCACCCAUGUGACGAGUAUAUCUUCAAACAAGCUUUUUGCUCGUCUUAU [Sensor v3 - Turn-off variant 1 - 23] (puzzle: Sensor v3, turn-off variant 1)", "apparent KD of MS2 coat protein", 41.6],
  ["AAACGGCGGACCGUGGCUUUUUGCUCGUCUUGUGCUUCGACAUGAGGAUCACCCAUGUGGUGGUGGUCCGUUGUAAA [Grok-var2-15 mod JAL] (puzzle: Sensor v3, turn-off variant 2)", "apparent KD of MS2 coat protein", 48.3],
  ["AGUACUAACACGAUAGUGUUAGUACAAUAAGCUUGUGAAACAUGAGGAUCACCCAUGUCCUCAUAAGCUCGUCUUAU [salish99_TOv2_r3_030] (puzzle: Sensor v3, turn-off variant 2)", "apparent KD of MS2 coat protein", 14.5],
  ["GGGCGGCGGACCGUGGCUUUUUGCUCGUCUUAUGCUUCGACAUGAGGAUCACCCAUGUGGUGGUGGUCCGUUGUGGG [Grok-var2-13 mod JAL] (puzzle: Sensor v3, turn-off variant 2)", "apparent KD of MS2 coat protein", 18.4],
  ["UUUUUUGUUUUUUUUACAAGCUUUUUGCUCGUCUUAUUAACAUGAGGAUCACCCAUGUCAAAGAGACCUCAUGUAUU [Sensor v3 - turn-off variant 2 - 1] (puzzle: Sensor v3, turn-off variant 2)", "apparent KD of MS2 coat protein", 91.2],
  ["CUGGUCCGAGGAUAUAUUAAGUGAAACAUGAGGAUCACCCAUGUUAUUUAAUGGAUGUAAAUAGAAGGCGGACUAG [JL-ex5-3.12] (puzzle: Exclusion 5)", "apparent KD of MS2 coat protein", 29.9]
]}

## Task Fill in the blank: the reported apparent KD of MS2 coat protein of GAUUAUGCGAGCUUUAGGGACAUGAGGAUCACCCAUGUUCGUCUUAUUAGUCUGAAUACGCUGACAUACCUAAAUCU [JMF 95] (puzzle: Sensor v3, turn-off variant 1) is ____.
## Result 16.3
